- procedure_details: Ex vivo biodistribution in H69-tumor bearing mice
- measurement_context: mouse, in vivo, iv, Uptake in Intestines, 1 h p.i., n = 4

molecule: C[C@@H](O)[C@H](NC(=O)[C@@H]1CSSC[C@H](NC(=O)[C@@H](Cc2ccccc2)NC(=O)CN2CCN(CC(=O)O)CCN(CC(=O)O)CCN(CC(=O)O)CC2)C(=O)N[C@@H](Cc2ccc(O)cc2)C(=O)N[C@H](Cc2c[nH]c3ccccc23)C(=O)N[C@@H](CCCCN)C(=O)N[C@@H]([C@@H](C)O)C(=O)N1)C(=O)O [[^111In]In-DOTA-TATE, metal not drawn, reference compound]
uom: %ID/g
tissue uptake at 1 h: 0.74

Recorded values, source paper PMC11111636.
